- targetEntity: Corticotropin-releasing factor receptor 2/Corticotropin-releasing factor-binding protein (Homo sapiens, UniProt P24387+Q13324)
- Sequence (Q13324 whole entry): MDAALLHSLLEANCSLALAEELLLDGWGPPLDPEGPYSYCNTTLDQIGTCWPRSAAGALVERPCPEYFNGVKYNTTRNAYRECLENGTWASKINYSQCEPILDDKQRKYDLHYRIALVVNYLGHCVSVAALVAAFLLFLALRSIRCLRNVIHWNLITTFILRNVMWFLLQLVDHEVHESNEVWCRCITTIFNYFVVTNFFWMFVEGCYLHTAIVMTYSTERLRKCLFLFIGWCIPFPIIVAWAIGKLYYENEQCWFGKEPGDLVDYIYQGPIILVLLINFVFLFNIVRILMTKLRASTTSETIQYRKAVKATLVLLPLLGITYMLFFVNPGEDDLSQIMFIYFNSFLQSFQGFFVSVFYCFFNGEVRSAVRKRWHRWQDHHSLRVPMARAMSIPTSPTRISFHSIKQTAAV
- Sequence (P24387 whole entry): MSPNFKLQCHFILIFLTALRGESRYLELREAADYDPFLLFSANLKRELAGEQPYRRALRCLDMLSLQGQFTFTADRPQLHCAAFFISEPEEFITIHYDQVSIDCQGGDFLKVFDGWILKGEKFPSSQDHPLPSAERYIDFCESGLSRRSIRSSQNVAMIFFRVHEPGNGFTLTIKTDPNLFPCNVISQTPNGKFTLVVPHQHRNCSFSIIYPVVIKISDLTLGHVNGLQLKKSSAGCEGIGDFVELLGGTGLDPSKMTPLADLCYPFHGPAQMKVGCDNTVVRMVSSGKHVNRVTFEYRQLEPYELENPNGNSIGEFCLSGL
- assayMethodText: activators of CRF receptor 2 with binding protein – uHTS hits, confirmation (AID 602473)
- Type: functional
- conditionContext: read-out: EC50_Mean
Active and inactive are the calls of the source.
Write down one outcome, taken from active, inactive

Test call for this molecule, please: `CCCCCCCCNS(=O)(=O)CCNCc1ccc(OC)cc1`
inactive

Next entry: `CC1CCN(C(=O)C2CCN(S(=O)(=O)c3cccs3)CC2)CC1`
inactive

---

System: Cytochrome P450 2D6 (Homo sapiens) | Read-out: AC50;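 note: CYP2D6 member of a cytochrome P450 panel assay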
Sequence (P10635 whole entry): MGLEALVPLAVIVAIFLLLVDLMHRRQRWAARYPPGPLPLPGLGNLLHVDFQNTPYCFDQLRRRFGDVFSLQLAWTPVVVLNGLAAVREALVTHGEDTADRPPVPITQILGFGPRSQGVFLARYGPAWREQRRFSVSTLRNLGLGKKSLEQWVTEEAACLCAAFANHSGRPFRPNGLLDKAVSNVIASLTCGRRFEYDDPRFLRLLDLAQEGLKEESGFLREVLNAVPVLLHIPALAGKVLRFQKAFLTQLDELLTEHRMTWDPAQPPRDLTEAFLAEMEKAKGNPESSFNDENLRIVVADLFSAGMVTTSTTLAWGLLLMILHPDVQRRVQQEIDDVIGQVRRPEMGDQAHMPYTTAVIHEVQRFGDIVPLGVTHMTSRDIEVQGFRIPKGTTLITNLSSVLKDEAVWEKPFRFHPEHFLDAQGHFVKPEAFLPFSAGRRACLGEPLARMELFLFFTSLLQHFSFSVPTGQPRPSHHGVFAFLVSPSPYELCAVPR

I'd like to know its AC50. The compound in question is `CCC(CC)C(=O)NCc1ccc2c(c1)cc(C)n2C`
31.6 µM (inconclusive)

Next entry: `CC(C)CCn1c(N)c(C(=O)NCc2cccs2)c2nc3ccccc3nc21`
8.91 µM (inconclusive)

More entries:
I'd like to know its AC50. The compound in question is `CCCn1nnnc1NC(=O)COc1ccc(Cl)cc1C`
25.1 µM (inconclusive)

Next entry: `COc1ccc(-c2cc(-c3c(O)c(OC)c4occc4c3OC)[nH]n2)cc1OC`
25.1 µM (inconclusive)

Next entry: `N[N-][C+]1c2ccccc2N[C@H]1OC(=O)Nc1cccc(Cl)c1`
3.98 µM (inconclusive)

Next entry: `Cc1cc(F)ccc1S(=O)(=O)Nc1ccccc1C(=O)Nc1ccccc1N1CCOCC1`
15.8 µM (inconclusive)

Next entry: `Cc1c(Br)c([N+](=O)[O-])nn1CC(=O)NCc1cccs1`
5.01 µM (inconclusive)

Next entry: `CC(=O)OC[C@@H]1O[C@@H](O/N=C2/C[C@@H](O)[C@@H](O)[C@@H]3[C@@H]4C(=O)N(C[C@@H]5CCCO5)C(=O)[C@H]4CC[C@H]23)[C@H](OC(C)=O)[C@H](OC(C)=O)[C@@H]1OC(C)=O`
5.01 µM (inconclusive)

Next entry: `c1ccc(-c2nnn(CCN3CCCCC3)n2)cc1`
3.16 µM (inconclusive)

Next entry: Cn1c(SCc2nnc(-c3ccc(F)cc3)o2)nnc1C1COc2ccccc2O1 (stereo unspecified)
5.01 µM (inconclusive)

Next entry: `O=C(CN1CCCCC1)Nc1ccc(Br)cc1C(=O)c1ccccc1Cl`
11.2 µM (inconclusive)

---

The reader will find reported CC50 values listed item by item below.
- assayMethodText: viability of uninfected HEp-2 cells – cell-based, HTS, cytotoxicity control for RSV inhibitor project, dose response (AID 2410)
- Format: functional
- conditionContext: human respiratory syncytial virus
Active and inactive are the calls of the source.

A selection of reference data follows.
I'd like to know its CC50. The molecule in question is `Clc1cccc(-c2cc3nc4c(c(N5CCN(c6cnccn6)CC5)n3n2)CCCC4)c1`
35.2 µM (active)

Next entry: `COc1ccc(Nc2nnc(SCC(=O)/C=C3/N(C)c4ccccc4C3(C)C)s2)cc1`
7.33 µM (active)

Next entry: `O=C(Nc1ccccc1N1CCCCC1)c1cc(S(=O)(=O)N2CCOCC2)ccc1Cl`
21.7 µM (active)

Next entry: `CC(c1ccc(O)cc1)(c1ccc(O)cc1)c1ccc(CCBr)cc1`
17.4 µM (active)

Next entry: `COC(=O)C1=C(c2ccccc2OCc2ccccc2)C[C@@H]2CC[C@H]1N2C(=O)NCc1ccc([N+](=O)[O-])cc1`
37.6 µM (active)

Proceeding to the next molecule to report its CC50.
I'd like to know its CC50. The molecule in question is `COc1cccc(N/C(C)=C/C(=O)c2ccc(Br)cc2)c1`
25.5 µM (active)

---

- targetEntity: UniProt:Q9BQF6
- Sequence (Q9BQF6 whole entry): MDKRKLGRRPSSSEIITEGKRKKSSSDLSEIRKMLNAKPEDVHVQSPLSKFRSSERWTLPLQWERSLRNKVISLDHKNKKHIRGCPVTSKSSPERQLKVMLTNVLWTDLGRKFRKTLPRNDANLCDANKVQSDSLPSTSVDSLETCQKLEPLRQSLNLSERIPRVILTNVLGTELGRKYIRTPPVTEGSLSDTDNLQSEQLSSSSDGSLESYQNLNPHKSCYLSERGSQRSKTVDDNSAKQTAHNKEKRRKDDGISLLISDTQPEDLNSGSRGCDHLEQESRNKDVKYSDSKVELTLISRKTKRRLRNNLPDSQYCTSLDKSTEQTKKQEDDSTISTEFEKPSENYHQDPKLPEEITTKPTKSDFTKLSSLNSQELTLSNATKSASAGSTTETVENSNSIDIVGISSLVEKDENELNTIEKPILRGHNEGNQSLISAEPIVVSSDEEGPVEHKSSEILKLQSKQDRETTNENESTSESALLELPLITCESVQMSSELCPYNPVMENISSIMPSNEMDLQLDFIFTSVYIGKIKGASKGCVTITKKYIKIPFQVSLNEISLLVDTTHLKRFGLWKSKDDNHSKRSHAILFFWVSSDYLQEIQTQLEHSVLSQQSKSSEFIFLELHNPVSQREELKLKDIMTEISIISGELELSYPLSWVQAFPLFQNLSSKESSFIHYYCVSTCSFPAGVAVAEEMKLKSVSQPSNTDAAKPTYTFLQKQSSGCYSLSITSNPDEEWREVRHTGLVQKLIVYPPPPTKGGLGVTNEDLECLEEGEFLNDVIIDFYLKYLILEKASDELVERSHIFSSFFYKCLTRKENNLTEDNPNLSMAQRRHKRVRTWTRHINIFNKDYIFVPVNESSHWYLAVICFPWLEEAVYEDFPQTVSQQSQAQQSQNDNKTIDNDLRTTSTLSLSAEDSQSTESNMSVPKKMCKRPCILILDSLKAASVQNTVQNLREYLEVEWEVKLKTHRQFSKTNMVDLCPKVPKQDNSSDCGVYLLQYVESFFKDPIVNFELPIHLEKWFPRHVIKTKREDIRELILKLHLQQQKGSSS
- Format: functional
Calls of active or inactive are those of the source.
parameter: IC50

A selection of reference data follows.
I'd like to know its IC50. The compound in question is `COc1cc2c(C#N)c(N3CCCC3)nc(N)c2c(N)n1`
2.67 µM (active)

Next entry: `Oc1cccc(/C=N/Nc2cc(N3CCCC3)nc(N3CCCC3)n2)c1`
9.99 µM (active)

Next entry: `Cc1csc2nc(CSc3nc4ccccc4o3)c(Br)n12`
16.2 µM (active)

Next entry: CCOC(=O)C1=C(COC(=O)c2ccc([N+](=O)[O-])s2)NC(=O)NC1C (stereo not given)
6.1 µM (active)

More entries:
I'd like to know its IC50. The compound in question is `Nc1c2c(nc3sc4c(c13)CCCCC4)CCCC2`
10.3 µM (active)

---

- assayMethodText: NIH3T3 cell viability loss – ATP luminescence, mouse fibroblasts, counter-screen, dose response (AID 2010);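 note: cells exposed to compound for about 90 hours before reading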
- Format: functional, cell-based
Where a name gives a salt, the structure may show the parent alone. Calls of active or inactive are those of the source.
parameter: EC50

I'd like to know its EC50. The molecule in question is CN(C)CCOc1ccc(/C(=C(/CCCl)c2ccccc2)c2ccccc2)cc1 [TOREMIFENE CITRATE]
> 60 µM (not active)

More entries:
I'd like to know its EC50. The molecule in question is `N=C(N)Nc1nc(-c2ccccc2)c2ccccc2n1`
> 60 µM (not active)

Next entry: `CNC(=O)c1nnsc1S(=O)(=O)c1ccc(Cl)cc1`
2.47 µM (active)

Next entry: `COc1cc2nc(N(CCCN(C)C)C(=O)c3ccc(S(=O)(=O)N4CCc5ccccc5C4)cc3)sc2cc1OC`
> 60 µM (not active)

Next entry: `CCOC(=O)C1CCN(C(=O)C(=O)c2cn(CC(=O)N3CCCCCC3)c3ccccc23)CC1`
> 60 µM (not active)

Next entry: `O=S(=O)(c1ccc(F)cc1)c1nc(-c2ccccc2F)oc1N1CCCCC1`
> 30 µM (not active)
